Assay Protocol: Plasma stability, mouse plasma
Measurement Parameters: mouse plasma, 37° C., timepoint 24 h
Bridge positions count the residues as written; N and C are the ends. Peptide text beside a SMILES is read from it.
Measured Metric: Mean (compound concentration)
// no unit, no text: just the number

Compound	Measured Metric	Observed Value
CC(=O)N[C@@H](CO)C(=O)N[C@@H](CCCNC(=N)N)C(=O)N[C@@H](CC(C)C)C(=O)N[C@@H](CCC(=O)O)C(=O)N[C@@H](CCC(=O)O)C(=O)N[C@@H](CCC(=O)O)C(=O)N[C@@H](CC(C)C)C(=O)N[C@@H](CCCNC(=N)N)C(=O)N[C@H]1CCCCNC(=O)CC[C@@H](C(N)=O)NC(=O)[C@H]([C@@H](C)O)NC(=O)[C@H](CC(C)C)NC(=O)[C@H](CCCNC(=N)N)NC1=O [SD15193] (Ac-SRLEEELRKRLTE-NH2; lactam 9-13)	Mean (compound concentration)	1.30
CC(=O)N[C@@H](CO)C(=O)N[C@@H](CCCNC(=N)N)C(=O)N[C@@H](CC(C)C)C(=O)N[C@@H](CCC(=O)O)C(=O)N[C@H]1CCC(=O)NCCCC[C@@H](C(=O)N[C@@H](CCCNC(=N)N)C(=O)N[C@@H](CC(C)C)C(=O)N[C@H](C(=O)N[C@@H](CCC(=O)O)C(N)=O)[C@@H](C)O)NC(=O)[C@H](CCCNC(=N)N)NC(=O)[C@H](CC(C)C)NC(=O)[C@H](CCC(=O)O)NC1=O [SD15194] (Ac-SRLEEELRKRLTE-NH2; lactam 5-9)	Mean (compound concentration)	1.60

Sample CC(=O)N[C@@H](CO)C(=O)N[C@@H](CCCNC(=N)N)C(=O)N[C@@H](CC(C)C)C(=O)N[C@@H](CCC(=O)O)C(=O)N[C@H]1CC(=O)NCCCC[C@@H](C(=O)N[C@@H](CCCNC(=N)N)C(=O)N[C@@H](CC(C)C)C(=O)N[C@H](C(=O)N[C@@H](CCC(=O)O)C(N)=O)[C@@H](C)O)NC(=O)[C@H](CCCNC(=N)N)NC(=O)[C@H](CC(C)C)NC(=O)[C@H](CCC(=O)O)NC1=O [SD15196] (Ac-SRLEDELRKRLTE-NH2; lactam 5-9) ; Mean (compound concentration) observed: 1.27

Sample CC(=O)N[C@@H](CO)C(=O)N[C@@H](CCCNC(=N)N)C(=O)N[C@@H](CC(C)C)C(=O)N[C@@H](CCC(=O)O)C(=O)N[C@H]1CCC(=O)NCCCC[C@@H](C(=O)N[C@@H](CCCNC(=N)N)C(=O)N[C@@H](CCCNC(=N)N)C(=O)N[C@@H](CC(C)C)C(=O)N[C@H](C(=O)N[C@@H](CCC(=O)O)C(N)=O)[C@@H](C)O)NC(=O)[C@H](CC(C)C)NC(=O)[C@H](CCC(=O)O)NC1=O [SD15192] (Ac-SRLEEELKRRLTE-NH2; lactam 5-8) ; Mean (compound concentration) observed: 0.64

---

Entries and their measured remaining at 24 h, 10 µM follow.
Assay Protocol: Plasma stability, mouse plasma
Measurement Parameters: Balb C, mouse, Li-heparin plasma
Bridge positions count the residues as written; N and C are the ends. Peptide text beside a SMILES is read from it.
// return numeric value only (unit: %, not printed)

Compound	Unit Annotation	Observed Value
CC(=O)N[C@@H](CO)C(=O)N[C@@H](CCCNC(=N)N)C(=O)N[C@@H](CC(C)C)C(=O)N[C@@H](CCC(=O)O)C(=O)N[C@H]1CCC(=O)NCCCC[C@@H](C(=O)N[C@@H](CCCNC(=N)N)C(=O)N[C@@H](CC(C)C)C(=O)N[C@H](C(=O)N[C@@H](CCC(=O)O)C(N)=O)[C@@H](C)O)NC(=O)[C@H](CCCNC(=N)N)NC(=O)[C@H](CC(C)C)NC(=O)[C@H](CCC(=O)O)NC1=O [SD15194] (Ac-SRLEEELRKRLTE-NH2; lactam 5-9)	%	62.3
CC(=O)N[C@@H](CO)C(=O)N[C@@H](CCCNC(=N)N)C(=O)N[C@@H](CC(C)C)C(=O)N[C@@H](CCC(=O)O)C(=O)N[C@H]1CC(=O)NCCCC[C@@H](C(=O)N[C@@H](CCCNC(=N)N)C(=O)N[C@@H](CC(C)C)C(=O)N[C@H](C(=O)N[C@@H](CCC(=O)O)C(N)=O)[C@@H](C)O)NC(=O)[C@H](CCCNC(=N)N)NC(=O)[C@H](CC(C)C)NC(=O)[C@H](CCC(=O)O)NC1=O [SD15196] (Ac-SRLEDELRKRLTE-NH2; lactam 5-9)	%	52.5

Sample CC(=O)N[C@@H](CO)C(=O)N[C@@H](CCCNC(=N)N)C(=O)N[C@@H](CC(C)C)C(=O)N[C@@H](CCC(=O)O)C(=O)N[C@H]1CCC(=O)NCCCC[C@@H](C(=O)N[C@@H](CCCNC(=N)N)C(=O)N[C@@H](CCCNC(=N)N)C(=O)N[C@@H](CC(C)C)C(=O)N[C@H](C(=O)N[C@@H](CCC(=O)O)C(N)=O)[C@@H](C)O)NC(=O)[C@H](CC(C)C)NC(=O)[C@H](CCC(=O)O)NC1=O [SD15192] (Ac-SRLEEELKRRLTE-NH2; lactam 5-8) ; remaining at 24 h, 10 µM observed: 23.9

---

Assay Protocol: Plasma stability, mouse plasma
Measurement Parameters: mouse plasma, 37° C., timepoint 2 h
Bridge positions count the residues as written; N and C are the ends. Peptide text beside a SMILES is read from it.
Entries and their measured Tube 2 (compound concentration) follow.
// no unit, no text: just the number

Before answering, review these 3 worked examples.
Compound	Tube 2 (compound concentration)
CC(=O)N[C@@H](CO)C(=O)N[C@@H](CCCNC(=N)N)C(=O)N[C@@H](CC(C)C)C(=O)N[C@@H](CCC(=O)O)C(=O)N[C@H]1CCC(=O)NCCCC[C@@H](C(=O)N[C@@H](CCCNC(=N)N)C(=O)N[C@@H](CC(C)C)C(=O)N[C@H](C(=O)N[C@@H](CCC(=O)O)C(N)=O)[C@@H](C)O)NC(=O)[C@H](CCCNC(=N)N)NC(=O)[C@H](CC(C)C)NC(=O)[C@H](CCC(=O)O)NC1=O [SD15194] (Ac-SRLEEELRKRLTE-NH2; lactam 5-9)	2.467
CC(=O)N[C@@H](CO)C(=O)N[C@@H](CCCNC(=N)N)C(=O)N[C@@H](CC(C)C)C(=O)N[C@@H](CCC(=O)O)C(=O)N[C@H]1CC(=O)NCCCC[C@@H](C(=O)N[C@@H](CCCNC(=N)N)C(=O)N[C@@H](CC(C)C)C(=O)N[C@H](C(=O)N[C@@H](CCC(=O)O)C(N)=O)[C@@H](C)O)NC(=O)[C@H](CCCNC(=N)N)NC(=O)[C@H](CC(C)C)NC(=O)[C@H](CCC(=O)O)NC1=O [SD15196] (Ac-SRLEDELRKRLTE-NH2; lactam 5-9)	2.329
CC(=O)N[C@@H](CO)C(=O)N[C@@H](CCCNC(=N)N)C(=O)N[C@@H](CC(C)C)C(=O)N[C@@H](CCC(=O)O)C(=O)N[C@@H](CCC(=O)O)C(=O)N[C@@H](CCC(=O)O)C(=O)N[C@@H](CC(C)C)C(=O)N[C@@H](CCCNC(=N)N)C(=O)N[C@H]1CCCCNC(=O)CC[C@@H](C(N)=O)NC(=O)[C@H]([C@@H](C)O)NC(=O)[C@H](CC(C)C)NC(=O)[C@H](CCCNC(=N)N)NC1=O [SD15193] (Ac-SRLEEELRKRLTE-NH2; lactam 9-13)	2.972

Next compound, please.
Sample CC(=O)N[C@@H](CO)C(=O)N[C@@H](CCCNC(=N)N)C(=O)N[C@@H](CC(C)C)C(=O)N[C@@H](CCC(=O)O)C(=O)N[C@H]1CCC(=O)NCCCC[C@@H](C(=O)N[C@@H](CCCNC(=N)N)C(=O)N[C@@H](CCCNC(=N)N)C(=O)N[C@@H](CC(C)C)C(=O)N[C@H](C(=O)N[C@@H](CCC(=O)O)C(N)=O)[C@@H](C)O)NC(=O)[C@H](CC(C)C)NC(=O)[C@H](CCC(=O)O)NC1=O [SD15192] (Ac-SRLEEELKRRLTE-NH2; lactam 5-8) ; Tube 2 (compound concentration) observed: 2.256

---

Assay Protocol: Plasma stability, human plasma
Measurement Parameters: human, human Li-heparin plasma, Conc. (% of T0), human plasma, 37° C., timepoint 1 h
Bridge positions count the residues as written; N and C are the ends. Square brackets hold non-standard residues; d marks the D form. Peptide text beside a SMILES is read from it.
Entries and their measured remaining at 1 h, 10 µM follow.
// return numeric value only (unit: %, not printed)

Compound	remaining at 1 h, 10 µM, %
CC(=O)N1CCC[C@H]1C(=O)N[C@@H](CO)C(=O)N[C@@H](CCCNC(=N)N)C(=O)N[C@@H](CC(C)C)C(=O)N[C@@H](CCC(=O)O)C(=O)N[C@H]1CSSC[C@H](C(=O)N[C@@H](CCCNC(=N)N)C(=O)N[C@@H](CCCNC(=N)N)C(=O)N[C@@H](CC(C)C)C(=O)N[C@H](C(=O)N[C@@H](CCC(=O)O)C(N)=O)[C@@H](C)O)NC(=O)[C@H](CC(C)C)NC(=O)[C@H](CCC(=O)O)NC1=O [SD15807] (Ac-PSRLECEL[dC]RRLTE-NH2; disulfide 6-9)	94.4

Next compound, please.
Sample CC(=O)N1CCC[C@H]1C(=O)N[C@@H](CO)C(=O)N[C@@H](CCCNC(=N)N)C(=O)N[C@@H](CC(C)C)C(=O)N[C@H]1CCC(=O)NCCCC[C@@H](C(=O)N[C@@H](CCCNC(=N)N)C(=O)N[C@@H](CCCNC(=N)N)C(=O)N[C@@H](CC(C)C)C(=O)N[C@H](C(=O)N[C@@H](CCC(=O)O)C(N)=O)[C@@H](C)O)NC(=O)[C@H](CC(C)C)NC(=O)[C@H](CCC(=O)O)NC(=O)[C@H](CCC(=O)O)NC1=O [SD15806] (Ac-PSRLEEELKRRLTE-NH2; lactam 5-9) ; remaining at 1 h, 10 µM observed: 94

Origin of measurements: patent US20250154202A1
